# test_protocol: Plasma pharmacokinetics after oral tablets and capsules in male Beagle dogs
# Assay type: in vivo
# run_parameters: male, Beagle, dog, plasma, po, 100 mg, particle size d90:d50 228:108 μm (nonmicronized)
quantity: Cmax (ng/mL)
Answers are plain numbers, in ng/mL.

Record request: Cmax value, item C[C@@H](COCCC(=O)N1CCN(c2ncc(C(F)(F)F)cn2)CC1)Nc1cn[nH]c(=O)c1C(F)(F)F [compound of Formula I]
356
